study.system: recombinant IgG1(kappa) 4E10
experiment.description: competitive ELISA: peptide against biotinylated …(biotin)-NH2 for IgG 4E10
Where no end group is shown, it is not given here. [ ]: non-standard residue; d: D form. Orn = NCCC[C@H](N)C(=O)O
Consider the following binders; for each one, report its IC50.
Form entry: value (nM) — number only.

Give the reported IC50 for this binder. NWFDITNWLWYIKKKK-NH2 [peptide 94-1, …-NH2]
10

Complete the entry with IC50 for NWFCIT[Orn]WLWKKKK-NH2 (not fully specified; printed as NWFCITOWLWKKKK-NH2) [peptide 104-1, NWFCITOWLWKKKK-NH2 (acyclic control)]
40

Note IC50 for the binder shown: WNWFDITNWLWKKKK-NH2 [peptide 84-2, …-NH2]
120

Recall and state the measured IC50 for NWFDITNWLWRR-NH2 [peptide 44-1, …-NH2] .
600
